target: human aquaporin-4 M23 isoform (hAQP4b) (Homo sapiens, UniProt P55087); construct: Full-length cRNA was subcloned into pSP35T expression vector for Xenopus oocytes; expressed in transfected cells; host or cells: Xenopus laevis oocytes injected with hAQP4b cRNA (pSP35T vector); test: Inhibition of AQP4 mediated hypoosmotic swelling of Xenopus laevis oocytes expressing hAQP4b; type: cell-based; conditions: Table 3; from inhibitory data at 0.01≦[X]≦100 μM; read-out: IC50
Sequence (P55087 23-323): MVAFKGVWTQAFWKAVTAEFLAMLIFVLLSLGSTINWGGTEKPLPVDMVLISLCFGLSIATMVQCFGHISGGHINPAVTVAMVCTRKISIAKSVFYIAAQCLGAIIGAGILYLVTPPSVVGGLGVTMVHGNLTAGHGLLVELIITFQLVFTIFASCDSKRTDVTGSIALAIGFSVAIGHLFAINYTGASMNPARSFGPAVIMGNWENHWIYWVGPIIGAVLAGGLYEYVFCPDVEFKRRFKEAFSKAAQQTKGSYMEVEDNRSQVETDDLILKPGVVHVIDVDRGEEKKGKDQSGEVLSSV
pIC50: −log10 of the molar value.
Reported metric: pIC50

Example results:
[[record]]
molecule = "O=C(Nc1nccs1)c1cccnc1 [Compound 11, N-(thiazol-2-yl)nicotinamide]"
reported_metric = "pIC50"
number = 5.47

[[record]]
molecule = "O=C1NC(=O)C(c2ccccc2)(c2ccccc2)N1"
reported_metric = "pIC50"
number = 5.01

[[record]]
molecule = "CN(C)CCc1c[nH]c2ccc(Cn3cncn3)cc12"
reported_metric = "pIC50"
number = 5.54

[[record]]
molecule = "CC1(C)O[C@@H]2[C@@H](CO[C@@]3(COS(N)(=O)=O)OC(C)(C)O[C@@H]23)O1"
reported_metric = "pIC50"
number = 5.00


[a] Nc1nnc(-c2cccc(Cl)c2Cl)c(N)n1
[b] O=C(Nc1nncs1)c1cccnc1 [Compound 10, N-(1,3,4-thiadiazol-2-yl) nicotinamide]
Ask: Which one would you say has the larger pIC50 value: a , or b ? Selection: enter the item's label.
Result: b

* * *

target: human aquaporin-4 M23 isoform (hAQP4b) (Homo sapiens); construct: Full-length cRNA was subcloned into pSP35T expression vector for Xenopus oocytes; expressed in transfected cells; host or cells: Xenopus laevis oocytes injected with hAQP4b cRNA (pSP35T vector); assay: Inhibition of AQP4 mediated hypoosmotic swelling of Xenopus laevis oocytes expressing hAQP4b; format: cell-based; set-up: unit not given here; details: Table 3; value in parentheses after IC50; 0.01≦[X]≦100 μM
Reported metric: IAmax

[[record]]
molecule = "Nc1nnc(-c2cccc(Cl)c2Cl)c(N)n1 [Compound 7]"
number = 64

[[record]]
molecule = "CC1(C)O[C@@H]2[C@@H](CO[C@@]3(COS(N)(=O)=O)OC(C)(C)O[C@@H]23)O1 [Compound 8]"
number = 75

[[record]]
molecule = "O=C1NC(=O)C(c2ccccc2)(c2ccccc2)N1 [Compound 4, 5,5-diphenylimidazolidine-2,4-dione]"
number = 60

[[record]]
molecule = "CC(=O)Nc1nnc(S(N)(=O)=O)s1 [Compound 1]"
number = 86

[[record]]
molecule = "CN(C)CCc1c[nH]c2ccc(Cn3cncn3)cc12 [Compound 15]"
number = 54

[[record]]
molecule = "O=C(Nc1nccs1)c1cccnc1 [Compound 11, N-(thiazol-2-yl)nicotinamide]"
number = 23

[[record]]
molecule = "O=C(Nc1nncs1)c1cccnc1 [Compound 10, N-(1,3,4-thiadiazol-2-yl) nicotinamide]"
number = 73


* * *

target: human aquaporin-4 M23 isoform (hAQP4b) (Homo sapiens); construct: Full-length cRNA was subcloned into pSP35T expression vector for Xenopus oocytes; expressed in transfected cells; host or cells: Xenopus laevis oocytes injected with hAQP4b cRNA (pSP35T vector); test: Inhibition of AQP4 mediated hypoosmotic swelling of Xenopus laevis oocytes expressing hAQP4b; format: cell-based; conditions: Table 3; [X]=20 μM; P<0.05; read-out: % Inh (percent inhibition and cumulated error)
Reported metric: inhibition at 20 µM (%)

Example results:
[[record]]
molecule = "NS(=O)(=O)c1ccc(Cl)s1 [Compound 13, 2-chlorothiophene-5-sulfonamide]"
number = 18

[[record]]
molecule = "NS(=O)(=O)Cc1noc2ccccc12 [Compound 9, benzo[d]isoxazol-3-ylmethane sulfonamide]"
number = 19

[[record]]
molecule = "O=C(Nc1nccs1)c1cccnc1 [Compound 11, N-(thiazol-2-yl)nicotinamide]"
number = 21

[[record]]
molecule = "O=C(Nc1nncs1)c1cccnc1 [Compound 10, N-(1,3,4-thiadiazol-2-yl) nicotinamide]"
number = 67


[P] NC(=O)c1nc[nH]c1C(N)=O [Compound 14, 1H-imidazole-4,5-dicarboxamide]
[Q] Nc1nnc(-c2cccc(Cl)c2Cl)c(N)n1
[R] CC(=O)Nc1nnc(S(N)(=O)=O)s1
Ask: Sort the molecules on inhibition at 20 µM; start with the lowest figure. In your reply, arrange the labels in the requested order.
Result: P, Q, R

* * *

molecular target: human aquaporin-4 M23 isoform (hAQP4b) (Homo sapiens); construct: Full-length cRNA was subcloned into pSP35T expression vector for Xenopus oocytes; expressed in transfected cells; host or cells: Xenopus laevis oocytes injected with hAQP4b cRNA (pSP35T vector); assay: Inhibition of AQP4 mediated hypoosmotic swelling of Xenopus laevis oocytes expressing hAQP4b; assay type: cell-based; details: Table 3; [X]=20 μM; P<0.05; read-out: % Inh (percent inhibition and cumulated error)
Reported metric: inhibition at 20 µM (%)

[[record]]
compound = "NC(=O)N1c2ccccc2[C@H]2O[C@H]2c2ccccc21 [Compound 6]"
units_label = "%"
number = 40

[[record]]
compound = "NC(=O)N1c2ccccc2CC(=O)c2ccccc21 [Compound 5]"
units_label = "%"
number = 33

[[record]]
compound = "O=C1NC(=O)C(c2ccccc2)(c2ccccc2)N1 [Compound 4, 5,5-diphenylimidazolidine-2,4-dione]"
units_label = "%"
number = 58


[P] CN(C)CCc1c[nH]c2ccc(Cn3cncn3)cc12 [Compound 15]
[Q] CC(=O)Nc1ccc(S(N)(=O)=O)cc1 [Compound 3, N-(4-sulfamoylphenyl)acetamide]
Ask: Which one would you say has the larger inhibition at 20 µM value: P , or Q ? Selection: enter the item's label.
Result: P

* * *

biological target: human aquaporin-4 M23 isoform (hAQP4b) (Homo sapiens); construct: Full-length cRNA was subcloned into pSP35T expression vector for Xenopus oocytes; expressed in transfected cells; host or cells: Xenopus laevis oocytes injected with hAQP4b cRNA (pSP35T vector); experiment: Inhibition of AQP4 mediated hypoosmotic swelling of Xenopus laevis oocytes expressing hAQP4b; format: cell-based; conditions: figure legends FIGS. 8-12; non-linear least squares fit of dose dependent inhibition; read-out: IC50
pIC50: −log10 of the molar value.
Reported metric: pIC50

Example results:
[[record]]
compound = "O=C(Nc1nncs1)c1cccnc1 [Table 3 entry 10, N-(1,3,4-thiadiazol-2-yl) nicotinamide]"
number = 5.51

[[record]]
compound = "O=C1NC(=O)C(c2ccccc2)(c2ccccc2)N1"
number = 5.01


[a] CC1(C)O[C@@H]2[C@@H](CO[C@@]3(COS(N)(=O)=O)OC(C)(C)O[C@@H]23)O1
[b] CN(C)CCc1c[nH]c2ccc(Cn3cncn3)cc12
Ask: Which one would you say has the larger pIC50 value: a , or b ? Selection: enter the item's label.
Result: b
(b: 5.54, a: 5.00)
